Reference for the values: patent US11905244B2

target_entity: CRAC channel (Homo sapiens (Human), UniProt Q96D31)
Sequence (Q96D31 whole entry): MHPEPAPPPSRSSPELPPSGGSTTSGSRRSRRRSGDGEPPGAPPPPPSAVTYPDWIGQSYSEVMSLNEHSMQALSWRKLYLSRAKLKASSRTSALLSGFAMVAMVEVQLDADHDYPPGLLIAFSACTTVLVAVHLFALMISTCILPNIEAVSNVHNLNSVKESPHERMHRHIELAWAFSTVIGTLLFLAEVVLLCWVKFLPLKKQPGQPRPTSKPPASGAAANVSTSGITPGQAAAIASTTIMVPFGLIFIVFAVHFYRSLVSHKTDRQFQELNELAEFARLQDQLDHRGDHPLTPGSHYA
test_details: GFP-NFAT translocation-based high-content screening (TG-stimulated HeLa cells stably expressing GFP-NFAT)
Type: cell-based
experimental_setup: Table 2; unit inferred; read-out: IC50 of the compounds (inhibitory activity on CRAC channel)
Reported pIC50 values for a set of molecules
pIC50 here is simply -log10 of the concentration when that concentration is written in mol/L.

Here is how some molecules turned out for pIC50.
>  <molecule>
COC(=O)c1ccc(N2C(=O)CC(S/C(=N/c3cccc(OC)c3)NCCc3ccc(S(N)(=O)=O)cc3)C2=O)cc1 (stereo not drawn)

>  <pIC50>
4.95

$$$$
>  <molecule>
CN/C(=N/c1cc(Cl)cc(Cl)c1)SC1CC(=O)N(c2ccc(C(=O)O)cc2)C1=O (stereo not drawn)

>  <pIC50>
3.97

$$$$
>  <molecule>
COC(=O)c1ccc(N2C(=O)CC(S/C(=N/c3ccc(C)cc3)NCCc3ccc(S(N)(=O)=O)cc3)C2=O)cc1 (stereo not drawn)

>  <pIC50>
5.04

$$$$
>  <molecule>
COc1ccc(/N=C(\NCCc2ccc(S(N)(=O)=O)cc2)SC2CC(=O)N(c3ccccc3)C2=O)cc1 (stereo not drawn)

>  <pIC50>
5.80

$$$$

For the molecule CCOC(=O)c1ccc(N2C(=O)CC(S/C(=N/c3ccccc3)NC3CC3)C2=O)cc1 (stereo not drawn) , what pIC50 is on record?
6.02

Follow-up item: COc1ccc(N2C(=O)CC(S/C(=N/c3ccccc3)NCCc3ccc(S(N)(=O)=O)cc3)C2=O)cc1 (stereo not drawn)
5.30
